Molecular target: T1, orthogonal hCD122 receptor (hoRb), hCD122 with H133D and Y134F (human, UniProt P14784 27-550); note: reference of the scale not given here
T1 sequence: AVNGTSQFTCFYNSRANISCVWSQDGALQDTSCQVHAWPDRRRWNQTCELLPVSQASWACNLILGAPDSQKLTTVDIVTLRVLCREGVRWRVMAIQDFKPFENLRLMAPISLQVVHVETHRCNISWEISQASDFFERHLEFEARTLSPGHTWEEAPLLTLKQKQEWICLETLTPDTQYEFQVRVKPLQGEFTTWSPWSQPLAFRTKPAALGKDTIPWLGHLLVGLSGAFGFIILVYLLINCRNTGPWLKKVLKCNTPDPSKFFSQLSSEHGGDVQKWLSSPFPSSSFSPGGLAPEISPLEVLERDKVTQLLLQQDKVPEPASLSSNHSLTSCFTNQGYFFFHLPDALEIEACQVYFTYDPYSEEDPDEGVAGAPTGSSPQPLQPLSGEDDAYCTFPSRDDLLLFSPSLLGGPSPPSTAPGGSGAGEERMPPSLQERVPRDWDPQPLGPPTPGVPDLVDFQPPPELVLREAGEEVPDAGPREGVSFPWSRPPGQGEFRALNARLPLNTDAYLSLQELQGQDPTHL
Assay: cell-based or functional assay
experimentalReadout: Relative Proliferation Fold Change 3F8 1:2

1. Q74H, SQVLKA (ligand) APTSSSTKKTQLQLSQLLVLLKAILNGINNYKNPKLTRMLTFKFYMPKKATELKHLQCLEEELKPLEEVLNLAHSKNFHLRPRDLISNINVIVLELKGSETTFMCEYADETATIVEFLNRWITFCQSIISTLT | 64.7 fold
2. L18Q, SQVLKA (ligand) APTSSSTKKTQLQLSQLQVLLKAILNGINNYKNPKLTRMLTFKFYMPKKATELKHLQCLEEELKPLEEVLNLAQSKNFHLRPRDLISNINVIVLELKGSETTFMCEYADETATIVEFLNRWITFCQSIISTLT | 111 fold

Data credit: patent US20210196796A1
